B1: Hairpin Ribozyme (parent)
chain: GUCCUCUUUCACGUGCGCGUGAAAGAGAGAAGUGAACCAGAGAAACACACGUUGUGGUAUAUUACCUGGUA

Variants of: B1
Experiment: self-cleavage, relative activity (ratio to wild type); higher = more cleavage; co-transcriptional
Endpoint Label: self-cleavage
# respond with the number and nothing more

- GUCCUCUUUCACGUGCGCGUGAAAGAGAGAAGUGAAUCAGAGAAAUACACGUUGUGGUAUAUUACCUGGUA [C37U C46U]: 0.198
- GUCCUCUUACACGUGCGCGUGAAAGAGAGAAGUGAACCAGAGAAAAACACGUUGUGGUAUAUUACCUGGUA [U9A C46A]: 0.0884
- GUCCUCUUUCACGUGCGCGUGAAAGAGGGAAGUGAACCAGAGAAACACACAUUGUGGUAUAUUACCUGGUA [A28G G51A]: 1.25

Documented self-cleavage of GUCCUCUUUCACGUGCGCGUGACAGAGAGAAGUGAACCAGAGAAACACACGUCGUGGUAUAUUACCUGGUA [A23C U53C] : 0.702
